observed-property: melting point

Value sought for every listed compound: melting point.
1. COC(=O)c1cnnc2c(C)cccc12
2. CCCCC(=O)N(Cc1ccc2c(c1)c1ccccc1n2CCc1nnn[nH]1)C(C(=O)O)C(C)C (stereo unspecified)
3. CC(=O)Nc1ccc2cccc(Oc3cc(N4CCN([C@H](C)c5ccc(F)cc5)CC4)ncn3)c2n1

Ans:
90 to 91 °C
111 to 112 °C
134 °C

* * *

observed-property: melting point

Worked examples, 2 compounds total:
CCc1noc(-c2c[nH]c(-c3cccc(Oc4ccc(Br)cn4)c3)n2)n1 :: 141 to 142 °C
O=C(NCC12CC3CC(CC(C3)C1)C2)c1cccc(F)c1Cl :: 149 to 151 °C

Below: the item to evaluate.
Q: What does the record list as melting point for COc1c(-c2ccc3cc(NS(C)(=O)=O)ccc3c2)cc(N2CCNC2=O)cc1C(C)(C)C ?
Ans: 284 to 286 °C

* * *

What melting point was measured for each of the following?

The examples below pair each entry with its known result.
COC1=CC(=O)C(O)=C(CCCCCCCC2OC2CCCCCCCC2=C(O)C(=O)C=C(OC)C2=O)C1=O (stereo not drawn) :: 134 to 136 °C
COc1cc(COc2nn(-c3ccccc3)cc2/C=C/C(=O)N2CCOCC2)ccc1OCc1nc(-c2ccco2)oc1C :: 180 to 181 °C

Q: Item CCNc1ccc(N2CCOC2=O)cc1[N+](=O)[O-] has what recorded melting point?
Ans: 140 °C

* * *

Exercise: for every item that follows, state its recorded melting point.

Here are 5 molecules together with their reported answers.
O=C1Nc2ccc(Br)cc2C(c2ccccc2F)=NC1O (stereo unspecified) :: 196 to 198 °C
CC(C)(C)c1nc(C=C2CCOC2=O)nc(C(C)(C)C)c1O :: 158 to 160 °C
CCCCNC(=O)c1ccccc1CN1C(=O)C2(COc3cc4c(cc32)CCO4)c2ccccc21 (stereo unspecified) :: 176 to 178 °C
CCOC(=O)Cc1nn(Cc2ccc(Br)c(Cl)c2)c(=O)c2ccccc12 :: 142 to 145 °C
CSc1nn2c(N3CCN(C)CC3)cc(CN3CCOCC3)nc2c1S(=O)(=O)c1ccccc1 :: 199 to 201 °C

Q: Fill blank: measured melting point of the molecule CCOC(=O)C(NS(=O)(=O)c1ccc(C)cc1)C1CCOC1 (stereo unspecified) is ____.
Ans: 104 to 105 °C

* * *

So I've got a bunch of compounds here, and I need their melting point values.

CCOCc1nc2c(N)nc(C)c(C)c2n1CCCCNS(C)(=O)=O :: 165 to 167 °C
CCCC1=C(C(=O)OCC)C(c2ccccc2Cl)c2cn(C(=O)c3ccccc3)nc2N1 (stereo not drawn) :: 119 to 121 °C

Then there is this compound:
Q: What value of melting point has been recorded for this entry: COC(=O)c1c[nH]c(C=Cc2cnc3nc(NC(=O)C(C)(C)C)nc(O)c3c2)c1
Ans: > 260 °C

* * *

observed-property: melting point (°C)
One number for each entry, in °C.

Cn1nc(C(F)F)[nH]c1=O :: 141

Q: What does the record list as melting point for CCOC(=O)C1=C(N)NC2=C(C(=O)CCC2)C1c1ccccc1N=[N+]=[N-] (stereo not drawn) ?
Ans: 209

* * *

Kindly state melting point for each of the entries shown.

N#Cc1c(N)nc2ccccc2c1Nc1cccs1 :: 208 to 209 °C
Cn1c(C(F)(F)F)cc(C#N)c1-c1ccc2ccccc2c1 :: 134 °C
c1ccc(N2CCN(c3nn(-c4ccccc4)c4ccccc34)CC2)cc1 :: 129 to 130 °C
N#Cc1nn(-c2c(Cl)cc(C(F)(F)F)cc2Cl)c(N)c1C1=CCCCC1 :: 175 to 177 °C
COc1ccc(C(O)c2cccnc2)cn1 (stereo not drawn) :: 129 to 130 °C

Please look at the items below and tell me melting point for each one, in order.
1. CC(=O)OCCCNC(=O)CCC(NC(=O)C=Cc1ccco1)C(=O)NCCCOC(C)=O (stereo not drawn)
2. COC(=O)c1cccc(-c2ccc(OC)c3c2CC(C)(C)O3)c1

Ans:
["132 to 134 °C", "89 to 91 °C"]

Give melting point for each of the items listed below.
1. C/C=C(/C)c1ccc2c(c1)C(=O)N(c1ccc3c(ccn3C)c1)C2
2. CCCn1cnc(C(N)=O)c1NC(=S)NC(=O)c1ccccc1
3. Fc1cc(CC2(Cc3ccncc3)c3ccccc3Oc3ncccc32)ccn1 (stereo not drawn)
4. Cn1ncnc1-c1oc2cccc(CCc3ccc(F)cc3)c2c(=O)c1O
5. Cc1cc(C(=Cc2nnnn2C)c2ccc(F)c(C)c2)ccc1F

Ans:
1: 144 to 145 °C; 2: 163 to 164 °C; 3: 206 to 208 °C; 4: 192 to 193 °C; 5: 138 to 139 °C

Q: Look up melting point for this compound: CC1(c2ccc(N)cc2)C(=O)c2c(Cl)cc(Cl)cc2N(Cc2ccccc2)C1=O (stereo not drawn)
Ans: 209 to 210 °C
